tested on: MDA-MB-435; assay: Growth inhibition of human MDA-MB-435 cells after 48 hrs by SRB protein assay; type: functional; conditions: MDA-MB-435, 48 h
Give measured GI50 for each item. Keep answers brief.
State just the number; it will be interpreted in µM.

`O=C(Cc1csc2nc(-c3ccc(Br)cc3)cn12)N/N=C/c1ccccc1` yielded GI50 of 12

Sure, the documented GI50 for `COc1cccc(OC)c1/C=N/NC(=O)Cc1csc2nc(-c3ccc(Br)cc3)cn12` is 3.98

`O=C(Cc1csc2nc(-c3ccc(Br)cc3)cn12)N/N=C/c1ccc(O)cc1` has a reported GI50 of 6.31

So, `O=C(Cc1csc2nc(-c3ccc(Br)cc3)cn12)N/N=C/c1ccc(Cl)cc1Cl` ? Its GI50 was 31.6

For `O=C(Cc1csc2nc(-c3ccc(Br)cc3)cn12)N/N=C/c1ccccc1O` the compound record lists GI50 as 3.31

Looking up `Nc1nc2[nH]cnc2c(=S)[nH]1` , I found its GI50 recorded as 0.851
